Recorded mortality (%) (500 ppm) Nilaparvata lugens values for a group of compounds are listed next.
Test system: Nilaparvata lugens
Assay: Insecticidal activity against Nilaparvata lugens (planthopper) by spraying
Format: in vivo
Details: 500 ppm; spraying 2 ml; counted after 24 hours
Quantity Kind: mortality (%) (500 ppm) Nilaparvata lugens

> print(dat)
                                    compound  assay.value
 1  COC1CCC([N+](=O)[O-])=C2N(CC3CCOC3)CCCN21 (centres unmarked)            8
 2  O=C(OC1CCC([N+](=O)[O-])=C2N(Cc3ccc(Cl)nc3)CCN21)c1cc(F)c(F)cc1F (centres unmarked)           78
 3  CCCCCOC1CCC([N+](=O)[O-])=C2N(Cc3cnc(Cl)s3)CCN21 (racemic)           57
 4  CC(=O)OC1CCC([N+](=O)[O-])=C2N(Cc3cnc(Cl)s3)CCN21 (centres unmarked)            0
 5  O=C(OC1CCC([N+](=O)[O-])=C2N(Cc3cnc(Cl)s3)CCN21)c1cc(F)c(Cl)cc1Cl (centres unmarked)           78
 6  CCC(C)OC1CCC([N+](=O)[O-])=C2N(CC3CCOC3)CCCN21 (centres unmarked)           10
 7  CS(=O)(=O)OC1CCC([N+](=O)[O-])=C2N(Cc3ccc(Cl)nc3)CCN21 (centres unmarked)           65
 8  COCCOC1CCC([N+](=O)[O-])=C2N(Cc3ccc(Cl)nc3)CCCN21 (centres unmarked)           26
 9  CC(C)(OC1CCC([N+](=O)[O-])=C2N(CC3CCOC3)CCN21)C(Cl)(Cl)Cl (centres unmarked)           38
10  CC(C)COC1CCC([N+](=O)[O-])=C2N(Cc3cnc(Cl)s3)CCCN21 (centres unmarked)            3
11  CCCCSC1CCC([N+](=O)[O-])=C2N(Cc3ccc(Cl)nc3)CCN21 (centres unmarked)           78
12  CC(C)COC1CCC([N+](=O)[O-])=C2N(Cc3ccc(Cl)nc3)CCCN21 (centres unmarked)           34
13  COC1CCC([N+](=O)[O-])=C2N(CC3CCOC3)CCN21 (centres unmarked)          100
14  O=C(OC1CCC([N+](=O)[O-])=C2N(Cc3ccc(Cl)nc3)CCN21)c1ccccc1F (centres unmarked)           34
15  O=[N+]([O-])C1=C2N(Cc3ccc(Cl)nc3)CCN2C(SC(C(F)(F)F)C(F)(F)F)CC1 (centres unmarked)           98
16  CC(C)COC1CCC([N+](=O)[O-])=C2N(Cc3cnc(Cl)s3)CCN21 (racemic)           23
17  CCOCCOC1CCC([N+](=O)[O-])=C2N(Cc3cnc(Cl)s3)CCCN21 (centres unmarked)            7
